Origin of measurements: patent US20220041588A1

- Test system: LC-2/ad (CCDCl6-RET) cells
- assayName: Cell proliferation assay (MTS), LC-2/ad cells
- Assay type: cell-based
- particulars: Homo sapiens, LC-2-ad, 72 h, LC-2/ad cells (CCDCl6-RET), 72 h incubation, MTS readout
# y = IC50 below 40 nM (exclusive); n = IC50 at/above 40 nM

Consider the following illustrative entries.
{"columns": ["molecule", "measuredTarget", "answerLabel"],
 "data": [
  ["COc1ccc(CN2C3CC2CN(c2ccc(-c4cc(OCCC(O)C(F)(F)F)cc5ncc(C#N)n45)cn2)C3)cn1 (stereo not drawn)", "LC-2/ad (CCDCl6-RET) cells", "n"],
  ["CC(C)[C@@H](O)C(=O)N1CCN(c2ccc(-c3cc(-c4cnn(C)c4)cc4ncc(C#N)n34)cn2)CC1", "LC-2/ad (CCDCl6-RET) cells", "n"],
  ["CO[C@@H](C(=O)N1CCN(c2ccc(-c3cc(-c4cnn(C)c4)cc4ncc(C#N)n34)cn2)CC1)c1ccccc1", "LC-2/ad (CCDCl6-RET) cells", "y"],
  ["Cn1cc(-c2cc(-c3ccc(N4CCC(Oc5ccccn5)CC4)nc3)n3c(C#N)cnc3c2)cn1", "LC-2/ad (CCDCl6-RET) cells", "y"],
  ["COc1ccc(OC2CCN(c3ccc(-c4cc(OCC(O)C(F)(F)F)cc5ncc(C#N)n45)cn3)CC2)cn1 (stereo not drawn)", "LC-2/ad (CCDCl6-RET) cells", "n"],
  ["Cn1cc(-c2cc(-c3ccc(N4CCC(O)(Cc5ccccc5)CC4)nc3)n3c(C#N)cnc3c2)cn1", "LC-2/ad (CCDCl6-RET) cells", "y"]
]}

Qu. I wonder whether Cn1cc(-c2cc(-c3ccc(N4CCN(Cc5ccccn5)CC4)nc3)n3c(C#N)cnc3c2)cn1 has IC50 below 40 nM. Can you tell?
Ans. n

Qu. I wonder whether Cn1cc(-c2cc(-c3ccc(N4CCN(C(=O)Cc5ccccn5)CC4)cc3)n3c(C#N)cnc3c2)cn1 has IC50 below 40 nM. Can you tell?
Ans. n

Qu. I wonder whether Cn1cc(-c2cc(-c3ccc(N4CCC(O)(Cc5ccccn5)CC4)nc3)n3c(C#N)cnc3c2)cn1 has IC50 below 40 nM. Can you tell?
Ans. y

Qu. I wonder whether COc1ccc(OC2CCN(c3ccc(-c4cc(OCC5(O)CC5)cc5ncc(C#N)n45)cn3)CC2)cn1 has IC50 below 40 nM. Can you tell?
Ans. y

Qu. I wonder whether COc1ccc(CN2C3CC2CN(c2ccc(-c4cc(OCC5(O)CC5)cc5ncc(C#N)n45)cn2)C3)cn1 [Example 57A] has IC50 below 40 nM. Can you tell?
Ans. n

Qu. I wonder whether Cc1cccc(CN2CCN(c3ccc(-c4cc(-c5cnn(C)c5)cc5ncc(C#N)n45)cn3)CC2)n1 has IC50 below 40 nM. Can you tell?
Ans. n

Qu. I wonder whether COC(CNC(=O)N1CCN(c2ccc(-c3cc(-c4cnn(C)c4)cc4ncc(C#N)n34)cn2)CC1)C(C)C (stereo not drawn) has IC50 below 40 nM. Can you tell?
Ans. y

----------
- Tested on: LC-2/ad (CCDCl6-RET) cells
- assayName: Cell proliferation assay (MTS), LC-2/ad cells
- Format: cell-based
- particulars: Homo sapiens, LC-2-ad, 72 h, LC-2/ad cells (CCDCl6-RET), 72 h incubation, MTS readout
Listed compounds paired with reported pIC50
Answer as the number alone; pIC50 is minus log10 of concentration in mol/L.

For orientation, consider the following solved cases.
{"columns": ["compound", "pIC50"],
 "data": [
  ["Cn1cc(-c2cc(-c3ccc(N4CCN(Cc5ccn(C)n5)CC4)nc3)n3c(C#N)cnc3c2)cn1 [Example 37]", 7.39],
  ["COc1ccc(OC2CCN(c3ccc(-c4cc(OCC(C)(C)O)cc5ncc(C#N)n45)cn3)CC2)cn1 [Example 60]", 8.05],
  ["COc1ccc(CN2CCN(c3ccc(-c4cc(-c5cnn(CCN6CCOCC6)c5)cc5ncc(C#N)n45)cn3)CC2)cn1 [Example 26]", 7.05],
  ["Cn1cc(-c2cc(-c3ccc(N4CCN(C(=O)Cc5ccccn5)CC4)nc3)n3c(C#N)cnc3c2)cn1 [Example 46]", 7.44]
]}

Qu. Tell me measured pIC50 for CC(C)(O)COc1cc(-c2ccc(N3CCC(O)(Cc4ccccc4)CC3)nc2)n2c(C#N)cnc2c1 [Example 66] please.
Ans. 7.26

Qu. Tell me measured pIC50 for CC(C)CC(=O)N1CCN(c2ccc(-c3cc(-c4cnn(C)c4)cc4ncc(C#N)n34)cn2)CC1 [Example 48] please.
Ans. 7.30

Qu. Tell me measured pIC50 for Cn1cc(-c2cc(-c3ccc(N4CCN(C(=O)[C@H](O)c5ccccc5)CC4)nc3)n3c(C#N)cnc3c2)cn1 [Example 7] please.
Ans. 7.80

Qu. Tell me measured pIC50 for CC(C)(O)COc1cc(-c2ccc(N3CCC(Oc4ccccn4)CC3)nc2)n2c(C#N)cnc2c1 [Example 64] please.
Ans. 7.55

Qu. Tell me measured pIC50 for COc1ccc(OC2CCN(c3ccc(-c4cc(-c5cnn(C)c5)cc5ncc(C#N)n45)cn3)CC2)nn1 [Example 19] please.
Ans. 8.22

Qu. Tell me measured pIC50 for Cn1cc(-c2cc(-c3ccc(N4CCN(CCS(=O)(=O)c5ccccc5)CC4)nc3)n3c(C#N)cnc3c2)cn1 [Example 38] please.
Ans. 7.47

Qu. Tell me measured pIC50 for COc1ccc(OC2CCN(c3ccc(-c4cc(OCC(C)(C)O)cc5ncc(C#N)n45)cn3)CC2)nn1 [Example 65] please.
Ans. 7.47

Qu. Tell me measured pIC50 for Cc1ccc(OC2CCN(c3ccc(-c4cc(-c5cnn(C)c5)cc5ncc(C#N)n45)cn3)CC2)nn1 [Example 20] please.
Ans. 7.77

Qu. Tell me measured pIC50 for COc1ccc(CN2CCN(c3ccc(-c4cc(-c5cnn(C)c5)cc5ncc(C#N)n45)cn3)CC2)cn1 [Example 6] please.
Ans. 7.36

Qu. Tell me measured pIC50 for Cn1cc(-c2cc(-c3ccc(N4CCN(Cc5ccccc5)CC4)nc3)n3c(C#N)cnc3c2)cn1 [Example 33] please.
Ans. 7.77

Qu. Tell me measured pIC50 for COc1ccc(C(=O)N2CCN(c3ccc(-c4cc(-c5cnn(C)c5)cc5ncc(C#N)n45)cn3)CC2)cn1 [Example 2] please.
Ans. 7.27
